system: cholesterol biosynthesis in HepG2 cells; assay: Metabolic labeling of HepG2 cells with [3H]acetate; radio-HPLC sterol profile (inhibition of cholesterol biosynthesis); format: cell-based, human; conditions: Table II (arranged by sterol profile); 10 μM compound, HepG2; normalized to normal medium (1.00)
Where a name gives a salt, the structure may show the parent alone.
Listed here are compounds together with their documented zymosterol+7-dehydrocholesterol.
measured.endpoint: zymosterol+7-dehydrocholesterol

- compound: "OC(CN1CCN(c2ccc(F)cc2)CC1)c1cccnc1 (centres unmarked) [LK-9144, trihydrobromide]"
  data.value: 1.50
- compound: "Cc1ccc(C(O)CN2CCN(CCc3ccccc3)CC2)cn1 (centres unmarked) [LK-9139, trihydrobromide]"
  data.value: 0.38
- compound: "OC(CN1CCN(Cc2ccc(F)cc2)CC1)c1cccnc1 (centres unmarked) [LK-9148, trihydrobromide]"
  data.value: 1.44
- compound: "c1ccc(CCN2CCN(CCc3ccncc3)CC2)cc1 [LK-9118B]"
  data.value: 0.90
- compound: "Clc1ccc(CCN2CCN(CCc3ccccn3)CC2)cc1Cl [LK-9137, trihydrobromide]"
  data.value: 1.41

====

test system: cholesterol biosynthesis in HepG2 cells; assay: Metabolic labeling of HepG2 cells with [3H]acetate; radio-HPLC sterol profile (inhibition of cholesterol biosynthesis); format: cell-based, human; details: Homo sapiens, 24 h; Table I; 10 μM compound, HepG2; sterol level normalized to normal medium (1.00); mean of 4 experiments; read-out: zymosterol+7-dehydrocholesterol
Counter-ions that a name gives are not always drawn.
This section presents compounds with their documented activity at 10 µM values.

- compound: "c1ccc(CCN2CCN(CCc3cccnc3)CC2)cc1 [LK-9100, trihydrobromide]"
  unit.tag: "%"
  activity at 10 µM: 74
- compound: "FC(F)(F)c1cnc(N2CCCN(CCc3ccccc3)CC2)c(Cl)c1 [LK-9115, trihydrobromide]"
  unit.tag: "%"
  activity at 10 µM: 91
- compound: "c1ccc(CCN2CCN(CCc3ccncc3)CC2)cc1 [LK-9118B]"
  unit.tag: "%"
  activity at 10 µM: 90
- compound: "FC(F)(F)c1ccc(CN2CCN(CCc3ccccc3)CC2)cn1 [LK-9107, trihydrobromide]"
  unit.tag: "%"
  activity at 10 µM: 20
- compound: "CC(C)c1c(C(=O)Nc2ccccc2)c(-c2ccccc2)c(-c2ccc(F)cc2)n1CC[C@@H](O)C[C@@H](O)CC(=O)O [atorvastatin, reference compound]"
  unit.tag: "%"
  activity at 10 µM: 0
- compound: "Fc1ccc(CCN2CCN(CCc3ccncc3)CC2)cc1F [LK-9131, trihydrobromide]"
  unit.tag: "%"
  activity at 10 µM: 9
- compound: "Clc1ccc(CCN2CCN(CCc3ccncc3)CC2)cc1Cl [LK-9135, trihydrobromide]"
  unit.tag: "%"
  activity at 10 µM: 2
- compound: "OC(CN1CCN(CCc2ccccc2)CC1)c1ccc2ccccc2c1 (centres unmarked) [LK-9111B]"
  unit.tag: "%"
  activity at 10 µM: 171
- compound: "Fc1ccc(CCN2CCN(CCc3ccccn3)CC2)cc1F [LK-9138, trihydrobromide]"
  unit.tag: "%"
  activity at 10 µM: 21
- compound: "OC(CN1CCN(c2ccc(F)cc2)CC1)c1cccnc1 (centres unmarked) [LK-9144, trihydrobromide]"
  unit.tag: "%"
  activity at 10 µM: 150
- compound: "c1ccc(CCN2CCN(Cc3ccc(N4CCOCC4)nc3)CC2)cc1 [LK-9109B]"
  unit.tag: "%"
  activity at 10 µM: 100
